Consider the following molecules; for each one, report its IC50.
# target.under.test: human EHMT2 913-1193 (Homo sapiens)
# Construct: recombinant purified human EHMT2 913-1193, Viva; purchased Viva
# Sequence (Q96KQ7 913-1193): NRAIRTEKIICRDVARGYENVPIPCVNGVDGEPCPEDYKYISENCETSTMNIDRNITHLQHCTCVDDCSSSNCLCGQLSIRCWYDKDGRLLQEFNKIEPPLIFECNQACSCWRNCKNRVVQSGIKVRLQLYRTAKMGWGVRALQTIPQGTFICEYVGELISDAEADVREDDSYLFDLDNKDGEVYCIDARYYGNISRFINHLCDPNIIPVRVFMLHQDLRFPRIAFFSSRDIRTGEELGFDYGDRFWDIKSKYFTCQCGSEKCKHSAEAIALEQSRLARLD
# procedure.summary: EHMT2 enzyme assay on histone peptide substrate (EHMT2 PEP)
# Assay type: biochemical
# setup.conditions: Table VII; read-out: EHMT2 PEP IC50
# Procedure: Recombinant purified human EHMT2 913-1193 (55 μM) synthesized by Viva was used for all experiments. Biotinylated histone peptides were synthesized by Biopeptide and HPLC-purified to >95% purity. […] 384-well Flashplates and 96-well filter binding plates were read on a TopCount microplate reader (PerkinElmer). […]

Respectfully, I request IC50 for each entry included below.
1. CNc1cc(C)nc(Nc2ccc(OC)c(OC[C@H](O)CN3CC(C)C3)c2)n1 [Compound 1100]
2. CNc1cc(C)nc(Nc2ccc(OC)c(OC[C@H](O)CN3CCCC3)c2)n1
3. CNc1ccnc(Nc2ccc(OC)c(OC[C@H](O)CN3CCC3)c2)n1 [Compound 1093]
4. CCN(C)C[C@@H](O)COc1cc(Nc2nc(C)cc(NC)n2)ccc1OC
5. CNc1ccnc(Nc2ccc(OC)c(OC[C@@H]3CN(C)CCO3)c2)n1
6. CCN1CC[C@@H](COc2cc(Nc3nccc(NC)n3)ccc2OC)C1

**Result**
1. 100 to 1000 nM
2. < 100 nM
3. 100 to 1000 nM
4. 100 to 1000 nM
5. > 10000 nM
6. 100 to 1000 nM

---

# target.under.test: human EHMT2 913-1193 (Homo sapiens, UniProt Q96KQ7)
# Construct: recombinant purified human EHMT2 913-1193, Viva; purchased Viva
# procedure.summary: EHMT2 enzyme assay on histone peptide substrate (EHMT2 PEP)
# Format: biochemical
# setup.conditions: recombinant human EHMT2 913-1193, histone H3 1-15 peptide, balanced conditions; read-out: EHMT2 PEP (IC50 μM)
measured.metric: IC50

COc1cc(NC2CCNCC2)ccc1OCCCN1CCCC1 [Compound 579] = 1 to 10 µM
CNc1cc(C)nc(Nc2cc(OC[C@@H]3CCN(C)C3)c(OC)cn2)c1 [Compound 475] = 0.1 to 1 µM
CNc1cc(C)nc(Nc2ccc(OC)c(OCCCN3CCCC3C)c2)n1 (stereo not drawn) [Compound 504] = 0.1 to 1 µM
COc1cnc(Nc2nc(C)cc3[nH]ncc23)cc1OCCCN1CCCC1 [Compound 460] = < 0.1 µM
COc1cnc(Nc2cc(NCC3CCOCC3)cc(C)n2)cc1OCCCN1CCCC1 [Compound 464] = 0.1 to 1 µM
COc1ccc(Nc2nc(C)cc3[nH]ccc23)cc1OCCCN1CCCC1 [Compound 486] = > 10 µM
CNc1cc(C)nc(Nc2ccc(OC)c(OCC3CCCN(C4CC4)C3)c2)n1 (stereo not drawn) [Compound 517a] = 0.1 to 1 µM
CNc1cc(C)nc(Nc2ccc(OC)c(OC[C@@H]3CN(C)C[C@H]3O)c2)n1 [Compound 491] = 0.1 to 1 µM
COc1cc2c(C3CCN(C)CC3)nc(N3CCCC3)nc2cc1OCCCN1CCCC1 [Compound 527] = < 0.1 µM
CNc1cc(C)nc(Nc2ccc(OC)c(O)c2)n1 [Compound 561] = > 10 µM

Respectfully, I request IC50 for each entry included below.
1. CCCCNc1nccc(NC)n1 [Compound 543]
2. COc1ncc(Nc2nc(C)cc(NC(C)C)n2)cc1OCCCN1CCCC1 [Compound 593]

**Result**
1. > 10 µM
2. 0.1 to 1 µM

Cited source for all entries: patent US20210198277A1
